ASSAY PROTOCOL: in vitro
Format: cell-based
APPLIED CONDITIONS: African green monkey
Measured IC50 at 24 h of individual entries

Past entries and their recorded results:
INSERT INTO results (compound, quantity_measured, result) VALUES
  ('CN(C)[C@@H]1C(O)=C(C(N)=O)C(=O)[C@@]2(O)C(O)=C3C(=O)c4c(O)ccc(CNOCCF)c4C[C@H]3C[C@@H]12', 'IC50 at 24 h', '> 75 µg/mL'),
  ('CC(C)ONCc1ccc(O)c2c1C[C@H]1C[C@H]3[C@H](N(C)C)C(O)=C(C(N)=O)C(=O)[C@@]3(O)C(O)=C1C2=O', 'IC50 at 24 h', '< 35 µg/mL'),
  ('CON(C)Cc1ccc2c(c1O)C(=O)C1=C(O)[C@]3(O)C(=O)C(C(N)=O)=C(O)[C@@H](N(C)C)[C@@H]3C[C@@H]1C2', 'IC50 at 24 h', '35 to 75 µg/mL'),
  ('CCO/N=C(/C)c1ccc(O)c2c1CC1CC3[C@H](N(C)C)C(O)=C(C(N)=O)C(=O)[C@@]3(O)C(O)=C1C2=O (stereo partly drawn)', 'IC50 at 24 h', '< 35 µg/mL');

Exercise: Entry CCON=C(C)c1cc(N)c(O)c2c1C[C@H]1C[C@H]3[C@H](N(C)C)C(O)=C(C(N)=O)C(=O)[C@@]3(O)C(O)=C1C2=O has what IC50 at 24 h?
Key: > 75 µg/mL

Exercise: Entry CN(C)[C@H]1C(O)=C(C(N)=O)C(=O)[C@@]2(O)C(O)=C3C(=O)c4c(O)ccc(CNOCC(F)F)c4C[C@H]3C[C@@H]12 has what IC50 at 24 h?
Key: > 75 µg/mL

----------
Reported MIC, E. coli MG. 1655.

Past entries and their recorded results:
INSERT INTO assay_data (molecule, quantity_measured, result) VALUES
  ('CCON=C(CCN(C)C)c1ccc(O)c2c1C[C@H]1C[C@H]3[C@@H](N(C)C)C(O)=C(C(N)=O)C(=O)[C@@]3(O)C(O)=C1C2=O [Compound I]', 'MIC', '< 4 µg/mL'),
  ('CC(=NOC(C)(C)C)c1cc(N)c(O)c2c1C[C@H]1C[C@H]3[C@@H](N(C)C)C(O)=C(C(N)=O)C(=O)[C@@]3(O)C(O)=C1C2=O [R]', 'MIC', '> 8 µg/mL'),
  ('CCON=C(C)c1cc(CNCC(C)(C)C)c(O)c2c1C[C@H]1C[C@H]3[C@H](N(C)C)C(O)=C(C(N)=O)C(=O)[C@@]3(O)C(O)=C1C2=O [Compound N]', 'MIC', '4 to 8 µg/mL');

Exercise: Value wanted: MIC (E. coli MG. 1655) of entry CN(C)[C@@H]1C(O)=C(C(N)=O)C(=O)[C@@]2(O)C(O)=C3C(=O)c4cccc(-c5cnccn5)c4C[C@H]3C[C@@H]12 [Compound W]
Key: > 8 µg/mL

Exercise: Value wanted: MIC (E. coli MG. 1655) of entry CCO/N=C(/C)c1ccc(O)c2c1CC1CC3[C@H](N(C)C)C(O)=C(C(N)=O)C(=O)[C@@]3(O)C(O)=C1C2=O (stereo partly drawn) [Compound A]
Key: 4 to 8 µg/mL

Exercise: Value wanted: MIC (E. coli MG. 1655) of entry CN(C)CCC(=NOC(C)(C)C)c1ccc(O)c2c1C[C@H]1C[C@H]3[C@H](N(C)C)C(O)=C(C(N)=O)C(=O)[C@@]3(O)C(O)=C1C2=O [O]
Key: < 4 µg/mL

Exercise: Value wanted: MIC (E. coli MG. 1655) of entry CC(=NOC(C)(C)C)c1cc(N)c(O)c2c1C[C@H]1C[C@H]3[C@H](N(C)C)C(O)=C(C(N)=O)C(=O)[C@@]3(O)C(O)=C1C2=O [Compound Q]
Key: 4 to 8 µg/mL

Exercise: Value wanted: MIC (E. coli MG. 1655) of entry CC(=NOCC(F)(F)F)c1cc(N)c(O)c2c1C[C@H]1C[C@H]3[C@H](N(C)C)C(O)=C(C(N)=O)C(=O)[C@@]3(O)C(O)=C1C2=O [Compound AW]
Key: 4 to 8 µg/mL

Exercise: Value wanted: MIC (E. coli MG. 1655) of entry CCON=C(C)c1cc(N)c(O)c2c1C[C@H]1C[C@H]3[C@H](N(C)C)C(O)=C(C(N)=O)C(=O)[C@@]3(O)C(O)=C1C2=O [M]
Key: 4 to 8 µg/mL

----------
ASSAY PROTOCOL: in vitro
Assay type: cell-based
APPLIED CONDITIONS: African green monkey
QUANTITY MEASURED: IC50 at 24 h

Past entries and their recorded results:
INSERT INTO results (compound, quantity_measured, result) VALUES
  ('CN(C)[C@@H]1C(O)=C(C(N)=O)C(=O)[C@@]2(O)C(O)=C3C(=O)c4c(O)ccc(CN5CCCCO5)c4C[C@H]3C[C@@H]12 [AV]', 'IC50 at 24 h', '35 to 75 µg/mL'),
  ('CN(C)[C@@H]1C(O)=C(C(N)=O)C(=O)[C@@]2(O)C(O)=C3C(=O)c4cccc(-c5cnccn5)c4C[C@H]3C[C@@H]12 [Compound W]', 'IC50 at 24 h', '> 75 µg/mL');

As a next step, examine the compound that follows.
Exercise: Entry CC(=NOC(C)(C)C)c1cc(N)c(O)c2c1C[C@H]1C[C@H]3[C@@H](N(C)C)C(O)=C(C(N)=O)C(=O)[C@@]3(O)C(O)=C1C2=O [R] has what IC50 at 24 h?
Key: < 35 µg/mL

----------
Measured MIC of individual entries
Tested on: B. thetaiotaomicron ATCC 29741
ASSAY PROTOCOL: Antibacterial MIC, CLSI broth microdilution
Type: cell-based
APPLIED CONDITIONS: Bacteroides thetaiotaomicron, ATCC29741; read-out: MIC B. thetaiotaomicron ATCC 29741

Past entries and their recorded results:
INSERT INTO measurements (molecule, result) VALUES
  ('CC(=NOC(C)(C)C)c1cc(N)c(O)c2c1C[C@H]1C[C@H]3[C@@H](N(C)C)C(O)=C(C(N)=O)C(=O)[C@@]3(O)C(O)=C1C2=O', '4 to 8 µg/mL'),
  ('CCON=C(C)c1cc(CNCC(C)(C)C)c(O)c2c1C[C@H]1C[C@H]3[C@H](N(C)C)C(O)=C(C(N)=O)C(=O)[C@@]3(O)C(O)=C1C2=O', '< 4 µg/mL'),
  ('CCON=C(CCN(C)C)c1ccc(O)c2c1C[C@H]1C[C@H]3[C@@H](N(C)C)C(O)=C(C(N)=O)C(=O)[C@@]3(O)C(O)=C1C2=O', '4 to 8 µg/mL'),
  ('CON(C)Cc1ccc2c(c1O)C(=O)C1=C(O)[C@]3(O)C(=O)C(C(N)=O)=C(O)[C@@H](N(C)C)[C@@H]3C[C@@H]1C2', '4 to 8 µg/mL'),
  ('CC(=NOC(C)(C)C)c1cc(N)c(O)c2c1C[C@H]1C[C@H]3[C@H](N(C)C)C(O)=C(C(N)=O)C(=O)[C@@]3(O)C(O)=C1C2=O', '4 to 8 µg/mL');

As a next step, examine the molecule that follows.
Exercise: Entry CC(=NOCC(F)(F)F)c1cc(N)c(O)c2c1C[C@H]1C[C@H]3[C@H](N(C)C)C(O)=C(C(N)=O)C(=O)[C@@]3(O)C(O)=C1C2=O has what MIC?
Key: 4 to 8 µg/mL

----------
Measured IC50 at 24 h of individual entries
ASSAY PROTOCOL: in vitro
Format: cell-based
APPLIED CONDITIONS: Chinese hamster

Past entries and their recorded results:
INSERT INTO assay_data (molecule, result) VALUES
  ('CN(C)[C@@H]1C(O)=C(C(N)=O)C(=O)[C@@]2(O)C(O)=C3C(=O)c4c(O)ccc(CN5CCCCO5)c4C[C@H]3C[C@@H]12', '35 to 75 µg/mL'),
  ('CCON=C(C)c1cc(CNCC(C)(C)C)c(O)c2c1C[C@H]1C[C@H]3[C@H](N(C)C)C(O)=C(C(N)=O)C(=O)[C@@]3(O)C(O)=C1C2=O', '> 75 µg/mL'),
  ('CN(C)[C@@H]1C(O)=C(C(N)=O)C(=O)[C@@]2(O)C(O)=C3C(=O)c4c(O)ccc(CNOCCF)c4C[C@H]3C[C@@H]12', '> 75 µg/mL'),
  ('CN(C)[C@@H]1C(O)=C(C(N)=O)C(=O)[C@@]2(O)C(O)=C3C(=O)c4c(O)ccc(CNOCC(F)(F)F)c4C[C@H]3C[C@@H]12', '< 35 µg/mL');

Exercise: Entry CCO/N=C(/C)c1ccc(O)c2c1CC1CC3[C@H](N(C)C)C(O)=C(C(N)=O)C(=O)[C@@]3(O)C(O)=C1C2=O (stereo partly drawn) has what IC50 at 24 h?
Key: < 35 µg/mL

Exercise: Entry CN(C)CCC(=NOC(C)(C)C)c1ccc(O)c2c1C[C@H]1C[C@H]3[C@H](N(C)C)C(O)=C(C(N)=O)C(=O)[C@@]3(O)C(O)=C1C2=O has what IC50 at 24 h?
Key: < 35 µg/mL

Values from patent US9481639B2
